# Test system: MALME-3M melanoma
# assay notes: NCI-60 one-dose screen, 48 h (100 = growth as untreated, 0 = no growth, -100 = all killed)
# experimental conditions: 10 µM unless noted
About 83,000 compounds went through this panel and 20% of them were active in at least one assay; those are over-represented in the sample as a whole. Activity calls are given as the source filed them. How the source made its calls: active means growth percent below 10; inactive means the rest.
// reported growth per item

Below, each entry is followed by its recorded growth result.
compound	growth
CN1CCN(Cc2ccc(NC(=O)c3ccc(C#N)c(C#Cc4cnc(N)c5ncccc45)c3)cc2C(F)(F)F)CC1	-52% (active)
COc1cc(/C=C2\C(=O)Nc3ccc(N(C)C)cc32)cc(OC)c1OC	37.2% (inactive)

Now examine the next entry.
### Prompt Hello, please tell me recorded growth for this one: CC(=O)OC1Oc2cc(C)c(C)cc2-c2oc(=O)c(-c3ccc(F)cc3)cc21 (stereo not drawn)
### Response 65.3% (inactive)
